Assay: In vivo pharmacokinetic study after oral WSE
Settings: male, Sprague Dawley, rat, plasma, po, 500 mg/kg

compound: CC1=C(CO)C(=O)O[C@@H]([C@@H](C)[C@H]2CC[C@H]3[C@@H]4C[C@H]5O[C@]56[C@@H](O)C=CC(=O)[C@]6(C)[C@H]4CC[C@]23C)C1 [Withaferin A]
MRT inf (h): 3.85

* * *

Assay: Stability of analytes in rat plasma
Details: rat plasma, high QC (nominal 200.50-201.50 ng/mL), n = 6
Reported Autosampler stability (% ± SD) by item:
outcome_measure: Autosampler stability (% ± SD) (%)

compound: CC1=C(CO)C(=O)O[C@@H]([C@@H](C)[C@H]2CC[C@H]3[C@@H]4CC=C5C[C@@H](O[C@@H]6O[C@H](CO[C@@H]7O[C@H](CO)[C@@H](O)[C@H](O)[C@H]7O)[C@@H](O)[C@H](O)[C@H]6O)C[C@H](O)[C@]5(C)[C@H]4CC[C@]23C)C1 [Withanoside IV]
outcome_measure: Autosampler stability (% ± SD)
measurement_unit: %
value_reported: 111.61
//
compound: CC1=C(C)C(=O)O[C@@H]([C@](C)(O)[C@H]2CC[C@H]3[C@@H]4[C@@H]5O[C@@H]5[C@@]5(O)CC=CC(=O)[C@]5(C)[C@H]4CC[C@]23C)C1 [Withanolide A]
outcome_measure: Autosampler stability (% ± SD)
measurement_unit: %
value_reported: 105.04
//
compound: CC1=C(C)C(=O)O[C@@H]([C@@H](C)[C@H]2CC[C@H]3[C@@H]4[C@@H]5O[C@@H]5[C@@]5(O)CC=CC(=O)[C@]5(C)[C@H]4CC[C@]23C)C1 [Withanolide B]
outcome_measure: Autosampler stability (% ± SD)
measurement_unit: %
value_reported: 97.26
//
compound: CC1=C(CO)C(=O)OC(C(C)C2CCC3C4C5OC5C5(O)CC=CC(=O)C5(C)C4CCC23C)C1 (stereo not shown) [12-Deoxy-withastramonolide]
outcome_measure: Autosampler stability (% ± SD)
measurement_unit: %
value_reported: 108.67
//
compound: CC1=C(CO)C(=O)O[C@@H]([C@@H](C)[C@H]2CC[C@H]3[C@@H]4C[C@H]5O[C@]56[C@@H](O)C=CC(=O)[C@]6(C)[C@H]4CC[C@]23C)C1
outcome_measure: Autosampler stability (% ± SD)
measurement_unit: %
value_reported: 108.40
//
compound: CC1=C(C)C(=O)O[C@@H]([C@@H](C)[C@@]2(O)CC[C@H]3[C@@H]4[C@@H]5O[C@@H]5[C@@]5(O)CC=CC(=O)[C@]5(C)[C@H]4CC[C@@]32C)C1
outcome_measure: Autosampler stability (% ± SD)
measurement_unit: %
value_reported: 111.25
//
compound: CC1=C(C)C(=O)O[C@@H]([C@@H](C)[C@H]2CC[C@H]3[C@@H]4CC=C5C[C@@H](O[C@@H]6O[C@H](CO[C@@H]7O[C@H](CO)[C@@H](O)[C@H](O)[C@H]7O)[C@@H](O)[C@H](O)[C@H]6O)C[C@H](O)[C@]5(C)[C@H]4CC[C@]23C)C1 [Withanoside V]
outcome_measure: Autosampler stability (% ± SD)
measurement_unit: %
value_reported: 111.25

* * *

Test: Stability of analytes in rat plasma
Settings: rat plasma, low QC (nominal 10.05-10.50 ng/mL), n = 6

compound: CC1=C(C)C(=O)O[C@@H]([C@@H](C)[C@H]2CC[C@H]3[C@@H]4[C@@H]5O[C@@H]5[C@@]5(O)CC=CC(=O)[C@]5(C)[C@H]4CC[C@]23C)C1 [Withanolide B]
measurement_unit: %
Autosampler stability (% ± SD): 98.84
//
compound: CC1=C(CO)C(=O)O[C@@H]([C@@H](C)[C@H]2CC[C@H]3[C@@H]4CC=C5C[C@@H](O[C@@H]6O[C@H](CO[C@@H]7O[C@H](CO)[C@@H](O)[C@H](O)[C@H]7O)[C@@H](O)[C@H](O)[C@H]6O)C[C@H](O)[C@]5(C)[C@H]4CC[C@]23C)C1 [Withanoside IV]
measurement_unit: %
Autosampler stability (% ± SD): 108.21
//
compound: CC1=C(C)C(=O)O[C@@H]([C@@H](C)[C@H]2CC[C@H]3[C@@H]4CC=C5C[C@@H](O[C@@H]6O[C@H](CO[C@@H]7O[C@H](CO)[C@@H](O)[C@H](O)[C@H]7O)[C@@H](O)[C@H](O)[C@H]6O)C[C@H](O)[C@]5(C)[C@H]4CC[C@]23C)C1 [Withanoside V]
measurement_unit: %
Autosampler stability (% ± SD): 109.83
//
compound: CC1=C(C)C(=O)O[C@@H]([C@](C)(O)[C@H]2CC[C@H]3[C@@H]4[C@@H]5O[C@@H]5[C@@]5(O)CC=CC(=O)[C@]5(C)[C@H]4CC[C@]23C)C1 [Withanolide A]
measurement_unit: %
Autosampler stability (% ± SD): 105.35

Hey, just so you know, these numbers are from paper PMC8912008.
